Target: T1, recombinant BACE1 (BACE1 extracellular domain, R&D Systems Cat#931-AS) (UniProt P56817 22-457)
T1 construct: extracellular domain; also called BACE1 extracellular domain protein
T1 sequence (P56817 22-457): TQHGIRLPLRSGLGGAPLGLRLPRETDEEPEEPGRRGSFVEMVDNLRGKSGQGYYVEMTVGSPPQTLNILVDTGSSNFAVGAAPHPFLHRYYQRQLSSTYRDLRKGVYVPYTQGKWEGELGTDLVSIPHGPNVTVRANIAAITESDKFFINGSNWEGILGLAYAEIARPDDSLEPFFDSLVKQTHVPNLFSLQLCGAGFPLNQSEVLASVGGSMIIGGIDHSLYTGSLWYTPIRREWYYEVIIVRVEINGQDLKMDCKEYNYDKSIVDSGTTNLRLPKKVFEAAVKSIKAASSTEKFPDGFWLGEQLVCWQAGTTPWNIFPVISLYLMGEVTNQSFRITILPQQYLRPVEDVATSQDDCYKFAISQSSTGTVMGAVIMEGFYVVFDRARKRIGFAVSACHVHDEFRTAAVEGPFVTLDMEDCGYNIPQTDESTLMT
Assay: SPR Biacore
measured.metric: kon (M⁻¹ s⁻¹)
# value in M⁻¹ s⁻¹; strip the unit string

Below: 4 binders and their reported kon.
binder="2H8.37 (antibody, human IgG1, V domains shown, human IgG1/kappa; also called 2H8_HC + 2H8_LCvar7) VH: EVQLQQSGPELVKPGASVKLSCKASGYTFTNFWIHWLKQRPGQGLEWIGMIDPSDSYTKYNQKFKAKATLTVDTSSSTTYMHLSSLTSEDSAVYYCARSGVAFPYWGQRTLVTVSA VL: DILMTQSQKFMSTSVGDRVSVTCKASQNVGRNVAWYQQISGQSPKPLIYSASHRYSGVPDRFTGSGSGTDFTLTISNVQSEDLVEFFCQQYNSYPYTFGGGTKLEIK" measured_metric=kon unit_symbol="M⁻¹ s⁻¹" val=20200
binder="2H8.13 (antibody, human IgG1, V domains shown, human IgG1/kappa; also called 2H8_HC + 2H8_LCvar3) VH: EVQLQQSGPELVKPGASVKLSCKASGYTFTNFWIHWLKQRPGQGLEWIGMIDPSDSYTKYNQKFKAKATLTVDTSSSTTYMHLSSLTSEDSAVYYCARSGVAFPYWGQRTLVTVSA VL: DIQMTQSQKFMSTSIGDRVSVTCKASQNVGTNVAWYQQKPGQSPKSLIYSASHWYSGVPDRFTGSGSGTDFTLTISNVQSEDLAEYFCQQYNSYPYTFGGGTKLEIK" measured_metric=kon unit_symbol="M⁻¹ s⁻¹" val=15500
binder="2H8.42 (antibody, human IgG1, V domains shown, human IgG1/kappa; also called 2H8_HCvar6 + 2H8_LCvar7) VH: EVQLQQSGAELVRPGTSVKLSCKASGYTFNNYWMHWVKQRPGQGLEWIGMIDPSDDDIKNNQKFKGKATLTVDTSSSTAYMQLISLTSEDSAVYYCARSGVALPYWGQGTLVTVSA VL: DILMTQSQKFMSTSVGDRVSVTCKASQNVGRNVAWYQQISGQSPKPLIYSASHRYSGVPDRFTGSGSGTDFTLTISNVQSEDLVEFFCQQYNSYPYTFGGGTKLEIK" measured_metric=kon unit_symbol="M⁻¹ s⁻¹" val=19000
binder="2H8.14 (antibody, human IgG1, V domains shown, human IgG1/kappa; also called 2H8_HCvar2 + 2H8_LCvar3) VH: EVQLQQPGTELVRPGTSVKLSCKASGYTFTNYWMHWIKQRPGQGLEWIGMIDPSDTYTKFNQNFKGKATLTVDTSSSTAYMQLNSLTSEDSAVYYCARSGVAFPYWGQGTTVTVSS VL: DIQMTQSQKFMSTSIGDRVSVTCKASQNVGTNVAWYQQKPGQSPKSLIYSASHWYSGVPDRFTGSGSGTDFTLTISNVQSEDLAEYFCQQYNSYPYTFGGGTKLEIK" measured_metric=kon unit_symbol="M⁻¹ s⁻¹" val=15200

[Q] Quick check: kon of 2H8.07 (antibody, human IgG1, V domains shown, human IgG1/kappa; also called 2H8_HC + 2H8_LCvar2) VH: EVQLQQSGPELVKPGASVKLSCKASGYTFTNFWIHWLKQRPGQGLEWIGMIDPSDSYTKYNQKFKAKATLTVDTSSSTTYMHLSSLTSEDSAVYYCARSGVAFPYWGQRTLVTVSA VL: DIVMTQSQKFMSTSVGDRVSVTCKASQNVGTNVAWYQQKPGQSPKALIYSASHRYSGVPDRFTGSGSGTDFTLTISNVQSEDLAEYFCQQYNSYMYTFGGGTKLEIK ?
[A] 14700

Source of measurements: patent US20210070881A1
